# System: A. baumannii HUMC1
# experiment-description: MIC by broth microdilution (CLSI), carbapenem-resistant clinical isolate HUMC1
# Type: cell-based, Acinetobacter baumannii
# run-conditions: Acinetobacter baumannii, HUMC1, HUMC1, RPMI plus 10% FCS (Table 1); read-out: MIC
# maps each entry to its MIC
Field: numeric (µg/mL). Do not append units.

- CO[C@H]1/C=C/O[C@@]2(C)Oc3c(C)c(O)c4c(O)c(c(/C=N/N5CCN(C)CC5)c(O)c4c3C2=O)NC(=O)/C(C)=C\C=C\[C@H](C)[C@H](O)[C@@H](C)[C@@H](O)[C@@H](C)[C@H](OC(C)=O)[C@@H]1C: 16

Now for another entry.
Lab note: molecule CO[C@H]1/C=C/O[C@@]2(C)Oc3c(C)c(O)c4c(c3C2=O)C2=NC3(CCN(CC(C)C)CC3)NC2=C(NC(=O)/C(C)=C\C=C\[C@H](C)[C@H](O)[C@@H](C)[C@@H](O)[C@@H](C)[C@H](OC(C)=O)[C@@H]1C)C4=O tested on A. baumannii HUMC1; recorded MIC was 0.002

The reported numbers originate from patent US11833139B2.
